// data source = patent US20250027068

# systemName: pooled human IgG
Would you mind telling me the reported Enzyme Activity Endpoint Assay (purified): IgG of each entry?
One number for each entry, in ng/µL.

Some entries whose results are on file:
protein	measurementUnits	observedMeasurement
PRT-138 (protein) MRNATEAYAKEVPHQITSVWTKGVTPPTPEQFRYNNEDVIHAPYLAHQGWYDITKAFDGKDNLLCGAATAGNMLHWWFDQNKTEIEAYLSKHPEKQKIIFNNQELFDLKAAIDTKDSQTNSQLFNYFRDKAFPNLSARQLGVMPDLVLDMFINGYYLNVFKTQSTDVNRPYQDKDKRGGIFDAVFTRGDQTTLLTARHDLKNKGLNDISTIIKQELTEGRALALSHTYANVSISHVINLWGADFNAEGNLEAIYVTDSDANASIGMKKYFVGINAHGHVAISAKKIEGENIGAQVLGLFTLSSGKDIWQKLS	ng/µL	0
PRT-70 (protein) MANQEIRYSEVTPYHVTSVWTKGVTPPANFTQGEDVFHAPYVANQGWYDITKTFNGKDDLLCGAATAGNMLHWWFDQNKEQIKRYLEEHPEKQKINFNGEQMFDVKEAIDTKNHQLDSKLFEYFKEKAFPYLSTKHLGVFPDHVIDMFINGYRLSLTNHGPTPVKEGSKDPRGGIFDAVFTRGDQSKLLTSRHDFKEKNLKEISDLIKKELTEGKALGLSHTYANVRINHVINLWGADFDSNGNLKAIYVTDSDSNASIGMKKYFVGVNSAGKVAISAKEIKEDNIGAQVLGLFTLSTGQDSWNQTN	ng/µL	14
PRT-118 (protein) MRNATEAYNKETPKTITSVWTKGVTPPTPEQFTKQNEDVFHAPYVANQGWYDITKTFNGKDNLLCGAATAGNMLHWWFDQNKTEIENYLKKHPEKQKIIFNNQELFDLKAAIDTKDSQTNSALFNYFRDKAFPNLSARQLGVMPDHVLDMFINGYYLNVNKTQSTDVNRPYDDKDKRGGIFDAVFTRGDQTTLLTARHDLKNKGLNEISTLIKQELTEGRALALSHTYANVSISHVINLWGADFNAEGNLEAIYVTDSDANASIGMKKYFVGKNASGKVAISAKKIEGDNIGAQVLGLFTLSSGKDIWQKLS	ng/µL	0

Now look at this entry.
Just so you know, measured Enzyme Activity Endpoint Assay (purified): IgG for PRT-115 (protein) MRNATEAYAKETPKTITSVWTKGVTPPTPEQFRYNGEDVIHAPYLAHQGWYDITKTFDGKDNLLCGAATAGNMLHWWFDQNKTEIERYLKKHPEKQKIIFNNQELFDLKAAIDTKDSQTNSALFNYFRDKAFPNLSARQLGVMPDLVLDMFINGYYLNVTKTQSTDVNRPYQTKDKRGGIFDAVFTRGDQTKLLTARHDLKNKTLNDISTLIKQELTEGKALALSHTYANVSISHVINLWGADFNAEGNLEAIYVTDSDSNASIGMKKYFVGVNAAGKVAISAKKIKGENIGAQVLGLFTLSSGKDIWQKLS came out at 24
